Source of measurements: patent US20250163162A1

Below, each of the binders is paired with its reported pSTAT3 MFI, NK cells, 0.01 nM (unstimulated 1315) value.
Biological target: T1, IL10Rα/IL2Rγ receptor (human, UniProt Q13651 22-578; P31785 23-369)
T1 sequence (looked up) 1: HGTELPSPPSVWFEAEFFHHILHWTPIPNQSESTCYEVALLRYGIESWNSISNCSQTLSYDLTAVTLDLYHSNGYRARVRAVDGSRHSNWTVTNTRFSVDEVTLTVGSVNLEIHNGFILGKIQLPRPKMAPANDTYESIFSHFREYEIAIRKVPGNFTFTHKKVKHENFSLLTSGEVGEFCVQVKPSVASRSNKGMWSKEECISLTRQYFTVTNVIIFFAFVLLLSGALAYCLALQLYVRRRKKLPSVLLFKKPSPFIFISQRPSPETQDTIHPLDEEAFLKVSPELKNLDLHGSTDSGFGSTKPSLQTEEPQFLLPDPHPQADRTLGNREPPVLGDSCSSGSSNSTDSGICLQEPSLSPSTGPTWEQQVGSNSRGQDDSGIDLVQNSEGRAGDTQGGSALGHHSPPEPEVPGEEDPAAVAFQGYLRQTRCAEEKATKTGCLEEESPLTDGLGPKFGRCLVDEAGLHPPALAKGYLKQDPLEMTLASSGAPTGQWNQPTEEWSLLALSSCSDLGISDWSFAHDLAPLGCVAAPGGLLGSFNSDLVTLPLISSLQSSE
T1 sequence (looked up) 2: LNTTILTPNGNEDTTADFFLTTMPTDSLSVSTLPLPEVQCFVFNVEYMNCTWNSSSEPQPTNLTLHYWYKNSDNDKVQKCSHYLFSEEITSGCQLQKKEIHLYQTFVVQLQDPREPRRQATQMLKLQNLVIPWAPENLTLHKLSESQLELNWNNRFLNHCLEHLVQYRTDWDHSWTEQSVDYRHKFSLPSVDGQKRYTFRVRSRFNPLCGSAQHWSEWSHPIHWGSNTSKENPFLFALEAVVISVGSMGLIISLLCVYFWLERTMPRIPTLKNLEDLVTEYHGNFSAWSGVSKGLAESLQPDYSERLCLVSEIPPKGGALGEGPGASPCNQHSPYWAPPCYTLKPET
Experiment: cell-based or functional assay
endpoint_label: pSTAT3 MFI, NK cells, 0.01 nM (unstimulated 1315) (MFI)

- DR471(DR241-DR231) (bispecific antibody) QVQLQESGGGSVQAGGSLRLSCAASGYSNCSYDMTWYRQAPGKEREFVSAIHSDGSTRYADSVKGRFFISQDNAKNTVYLQMNSLKPEDTAMYYCKTDPLHCRAHGGSWYSVRANYWGQGTQVTVSSGGGSQVQLQESGGGSVQAGGSLRLSCTASGFTFDDREMNWYRQAPGNECELVSTISSDGSTYYADSVKGRFTISQDNAKNTVYLQMDSVKPEDTAVYYCAADFMIAIQAPGAGCWGQGTQVTVSSASHHHHHH: 1250
- DR395(DR229-DR239) (bispecific antibody) QVQLQESGGGLVQPGGSLRLSCTASGFSFSSYPMTWARQAPGKGLEWVSTIASDGGSTAYAASVEGRFTISRDNAKSTLYLQLNSLKTEDTAMYYCTKGYGDGTPAPGQGTQVTVSSGGGSQVQLQESGGGSVQAGGSLRLSCTVSGYTYSSNCMGWFRQAPGKEREGVATIYTGGGNTYYADSVKGRFTISQDNAKNTVYLQMNNLKPEDTAMYYCAAEPLSRVYGGSCPTPTFDYWGQGTQVTVSSASHHHHHH: 1260
- DR441(DR236-DR231) (bispecific antibody) QVQLQESGGGSVQAGGSLRLSCAASRFTYSSYCMGWFRQAPGKEREGVASIDSDGSTSYTDSVKGRFTISKDNAKNTLYLQMNSLKPEDTAMYYCALDLMSTVVPGFCGFLLSAGMDYWGKGTQVTVSSGGGSQVQLQESGGGSVQAGGSLRLSCTASGFTFDDREMNWYRQAPGNECELVSTISSDGSTYYADSVKGRFTISQDNAKNTVYLQMDSVKPEDTAVYYCAADFMIAIQAPGAGCWGQGTQVTVSSASHHHHHH: 1270
- DR465(DR240-DR231) (bispecific antibody) QVQLQESGGGSVQAGGSLRLSCGASGYTYSSYCMGWFRQVPGKEREGVAVIDSDGSTSYADSVKGRFTISKDNGKNTLYLQMNSLKPEDTAMYYCAADLGHYRPPCGVLYLGMDYWGKGTQVTVSSGGGSQVQLQESGGGSVQAGGSLRLSCTASGFTFDDREMNWYRQAPGNECELVSTISSDGSTYYADSVKGRFTISQDNAKNTVYLQMDSVKPEDTAVYYCAADFMIAIQAPGAGCWGQGTQVTVSSASHHHHHH: 1220
